Biological target: MDM2 (Homo sapiens, UniProt Q00987)
Sequence (Q00987 whole entry): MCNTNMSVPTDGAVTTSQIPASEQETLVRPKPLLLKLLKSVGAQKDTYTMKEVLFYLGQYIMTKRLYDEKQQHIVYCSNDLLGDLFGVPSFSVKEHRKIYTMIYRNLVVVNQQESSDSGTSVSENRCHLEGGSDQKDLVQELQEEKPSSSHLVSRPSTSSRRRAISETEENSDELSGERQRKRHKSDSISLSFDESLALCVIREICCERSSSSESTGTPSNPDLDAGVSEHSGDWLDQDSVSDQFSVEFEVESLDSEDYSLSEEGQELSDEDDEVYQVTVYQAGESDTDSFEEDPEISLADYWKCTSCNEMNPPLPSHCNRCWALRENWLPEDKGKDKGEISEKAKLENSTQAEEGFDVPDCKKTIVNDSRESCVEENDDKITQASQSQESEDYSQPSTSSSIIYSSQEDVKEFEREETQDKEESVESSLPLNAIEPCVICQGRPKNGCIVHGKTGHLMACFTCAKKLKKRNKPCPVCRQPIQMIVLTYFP
Assay: MDM2 binding screen: displacement of fluorescent p53 peptide probe FP53 (fluorescence polarization)
Conditions: Acid 14; replicate; crude macrocycle reactions
Numbered stars: 1 amine (or outer) side, 2 acyl side, 3 side chain; on linkers, the order of the positions; unused ones are H or OH. Bridge positions count the residues as written; N and C are the ends. Square brackets hold non-standard residues; d marks the D form. Peptide text beside a SMILES is read from it. ξ: configuration not given here. ξPro(4-NHCO(5-Cl-2-thienyl)) = O=C(NC1CNC(C(=O)O)C1)c1ccc(Cl)s1; Cysteamide = C(CS[*:3])N[*:1]; Mpa = O=C(O)CCS
parameter: fraction fluorescent probe displaced, Replicate

See these solved cases before continuing.
- molecule: "O=C1CCSSCCNC(=O)C2CC(NC(=O)c3ccc(Cl)s3)CN2C(=O)C2CCCN2C(=O)C(Cc2c[nH]c3ccccc23)N1 (stereo not drawn) [X W B1 D5 Acid 14] ([Mpa]WP[ξPro(4-NHCO(5-Cl-2-thienyl))]-Cysteamide; disulfide 1-C; configuration not given here)"
  experimentalValue: 0.17
- molecule: "O=C1CCNC(=O)[C@H](Cc2ccccc2)NC(=O)C2(CCN(C(=O)c3ccc(Cl)s3)CC2)NC(=O)CCSSCCN1"
  experimentalValue: 0.07
- molecule: "O=C1CCSSCCNC(=O)C2(CCN(C(=O)c3ccc(Cl)s3)CC2)NC(=O)c2cccc(c2)CNC(=O)C(Cc2ccccc2)N1 (stereo not drawn)"
  experimentalValue: 0.10

stdin: Look up fraction fluorescent probe displaced, Replicate for this molecule: O=C1CCSSCCNC(=O)C(Cc2ccccc2)NC(=O)C(CNC(=O)c2ccc(Cl)s2)NC(=O)c2cccc(c2)CN1 (stereo not drawn)
stdout: 0.12

stdin: Any idea what fraction fluorescent probe displaced, Replicate was measured for O=C1CCSSCCNC(=O)c2cccc(c2)CNC(=O)[C@H](Cc2c[nH]c3ccccc23)NC(=O)[C@H](CNC(=O)c2ccc(Cl)s2)N1 ?
stdout: 0.22

stdin: What value of fraction fluorescent probe displaced, Replicate has been reported for the following molecule? O=C1CCSSCCNC(=O)[C@@H]2C[C@H](NC(=O)c3ccc(Cl)s3)CN2C(=O)CCNC(=O)[C@H](Cc2ccccc2)N1
stdout: 0.07

====

Below is a list of entries, each paired with its recorded percent residual thrombin activity value.
Molecular target: thrombin (Homo sapiens, UniProt P00734)
Construct: consists of two polypeptide chains of 36 (light chain) and 259 amino acid
Test: Thrombin inhibition screen of crude macrocycle reactions (residual thrombin activity, fluorogenic substrate Z-Gly-Gly-Arg-AMC)
Format: biochemical
Conditions: 10 µM macrocycle concentration; crude reactions, Library 1a-l; scaffold AA1-AA2-AA3 combined with 1-16 or '-'
Numbered stars: 1 amine (or outer) side, 2 acyl side, 3 side chain; on linkers, the order of the positions; unused ones are H or OH. Bridge positions count the residues as written; N and C are the ends. Square brackets hold non-standard residues; d marks the D form. Peptide text beside a SMILES is read from it. * marks the point of attachment. 1,2,3Thiadiazole5CO(4-Me) = Cc1nnsc1C(=O)*; Cysteamide = C(CS[*:3])N[*:1]; Mpa = O=C(O)CCS
Just the number please, in %, no unit attached.

Consider the reported percent residual thrombin activity for these compounds:
- compound: "Cc1nnsc1C(=O)NCCCC[C@@H]1NC(=O)[C@@H]2CCCN2C(=O)CCSSCCNC(=O)[C@H](CCC(N)=O)NC1=O [B1-D1-Q/15] ([Mpa]PK(1,2,3Thiadiazole5CO(4-Me))Q-Cysteamide; disulfide 1-C)"
  percent residual thrombin activity, %: 113.502
- compound: "NCCCC[C@@H]1NC(=O)CCSSCCNC(=O)C2(CC2)CNC(=O)[C@H](Cc2cnc[nH]2)NC1=O [D1-H-B6/-]"
  percent residual thrombin activity, %: 116.392

Here is another compound to look at.
stdin: Can you share its percent residual thrombin activity? I mean this compound: NCCCC[C@@H]1NC(=O)C2(CC2)CNC(=O)[C@H](Cc2c[nH]c3ccccc23)NC(=O)CCSSCCNC1=O [W-B6-D1/-]
stdout: 87.3276

====

Collected fraction fluorescent probe displaced, Screen values appear next to each entry.
Target: MDM2 (Homo sapiens)
Assay: MDM2 binding screen: displacement of fluorescent p53 peptide probe FP53 (fluorescence polarization)
Conditions: Acid 25; initial screen; crude macrocycle reactions
Numbered stars: 1 amine (or outer) side, 2 acyl side, 3 side chain; on linkers, the order of the positions; unused ones are H or OH. Bridge positions count the residues as written; N and C are the ends. Square brackets hold non-standard residues; d marks the D form. Peptide text beside a SMILES is read from it. * marks the point of attachment. Benzoyl(4-Cl) = O=C(c1ccc(Cl)cc1)*; Cysteamide = C(CS[*:3])N[*:1]; Dap = NC[C@H](N)C(=O)O; Mpa = O=C(O)CCS
When you answer, write just the number.

- molecule: "O=C1CCSSCCNC(=O)[C@H](CNC(=O)c2ccc(Cl)cc2)NC(=O)[C@@H]2CCCN2C(=O)[C@H](Cc2c[nH]c3ccccc23)N1 [X W B1 D3 Acid 25] ([Mpa]WP[Dap](Benzoyl(4-Cl))-Cysteamide; disulfide 1-C)"
  experimentalValue: 0.28
- molecule: "O=C1NCCSSCCC(=O)N2C[C@@H](NC(=O)c3ccc(Cl)cc3)C[C@H]2C(=O)N[C@@H](Cc2c[nH]c3ccccc23)C(=O)NCc2cccc1c2 [X D5 W B5 Acid 25]"
  experimentalValue: 0.0569
- molecule: "O=C1CCSSCCNC(=O)C(Cc2c[nH]c3ccccc23)NC(=O)C2CN(C(=O)c3ccc(Cl)cc3)CCN2C(=O)c2cccc(c2)CN1 (centres unmarked) [X B5 D7 W Acid 25]"
  experimentalValue: 0.09

stdin: Which fraction fluorescent probe displaced, Screen value belongs to O=C1NCCSSCCC(=O)N2CCN(C(=O)c3ccc(Cl)cc3)CC2C(=O)NC(Cc2ccccc2)C(=O)NCc2cccc1c2 (centres unmarked) [X D7 F B5 Acid 25] ?
stdout: 0.12

stdin: Suppose we examine the molecule O=C1CCSSCCNC(=O)[C@H](CNC(=O)c2ccc(Cl)cc2)NC(=O)[C@H](Cc2c[nH]c3ccccc23)NC(=O)CCN1 [X B2 W D3 Acid 25] ; what fraction fluorescent probe displaced, Screen value has been reported?
stdout: 0.19

====

Quick reference for fraction of fluorescent probe displaced among some compounds
Molecular target: MDM2 (Homo sapiens)
Assay: MDM2 binding screen of Libraries 3 and 4: displacement of fluorescent probe F-M8 at 750 nM macrocycle
Details: Panel b, Library 3: 63 scaffolds combinatorially acylated with 15 carboxylic acids at 30 picomole scale; displacement of fluorescent peptide probe; macrocycle 750 nM
Protocol: The cyclic peptide scaffolds required for Libraries 3 and 4 were synthesized as described for those used in Library 2. Due to the presence of many N-methylated amino acids which are more difficult to couple, 200 mM HOAt was applied together with HATU. The scaffolds were diluted to 2 mM in DMSO, and 15 nL were transferred using acoustic dispensing, followed by 15 nL DMSO containing carboxylic acids (40 mM, 20 equiv.), HBTU (40 mM) and DABCO (40 mM). […]
Give the figure by itself; no unit, no explanation.

Worked cases, answers included:
- compound: "O=C(/C=C/c1ccc(OCc2ccccc2)cc1)NC[C@@H]1NC(=O)C2(CC2)CNC(=O)CCSSCCNC(=O)[C@H](Cc2c[nH]c3ccccc23)NC1=O [X-Amcp-Dap-Trp + Acid 110]"
  parameter: "fraction of fluorescent probe displaced"
  experimentalValue: 0.015
- compound: "CC(Oc1cccc(Cl)c1)C(=O)NC[C@@H]1NC(=O)[C@@H]2CN(CCO2)C(=O)CCSSCCNC(=O)[C@H](Cc2c[nH]c3ccccc23)NC1=O (stereo partly drawn) [X-Cop-Dap-Trp + Acid 113]"
  parameter: "fraction of fluorescent probe displaced"
  experimentalValue: -0.00533
- compound: "CN1C(=O)[C@H](CNC(=O)/C=C/c2ccc(OCc3ccccc3)cc2)NC(=O)C2(CC2)CNC(=O)CCSSCCNC(=O)[C@@H]1Cc1c[nH]c2ccccc12 [X-Amcp-Dap-NMe-Trp + Acid 110]"
  parameter: "fraction of fluorescent probe displaced"
  experimentalValue: 0.015
- compound: "O=C(CCS(=O)(=O)c1ccccc1)NC[C@@H]1NC(=O)[C@@H]2CN(CCO2)C(=O)CCSSCCNC(=O)[C@H](Cc2c[nH]c3cc(Cl)ccc23)NC1=O [X-Cop-Dap-Cl-Trp + Acid 114]"
  parameter: "fraction of fluorescent probe displaced"
  experimentalValue: -0.039

stdin: Recorded fraction of fluorescent probe displaced for CN1C(=O)[C@H](CNC(=O)c2cccc(Oc3ccccc3)c2)NC(=O)C2(CC2)CNC(=O)CCSSCCNC(=O)[C@@H]1Cc1c[nH]c2ccccc12 [X-Amcp-Dap-NMe-Trp + Acid 111] with MDM2 (Homo sapiens), please?
stdout: -0.012

====

Molecular target: MDM2 (Homo sapiens, UniProt Q00987)
Assay: MDM2 binding screen: displacement of fluorescent p53 peptide probe FP53 (fluorescence polarization)
Conditions: 10 µM macrocycle concentration; crude acylated macrocycle (scaffold Mpa-AA1-AA2-AA3 x carboxylic acid); p53-based fluorescent peptide, human MDM2
Numbered stars: 1 amine (or outer) side, 2 acyl side, 3 side chain; on linkers, the order of the positions; unused ones are H or OH. Bridge positions count the residues as written; N and C are the ends. Square brackets hold non-standard residues; d marks the D form. Peptide text beside a SMILES is read from it. * marks the point of attachment. Nicotinoyl(6-OMe) = COc1ccc(C(=O)*)cn1; 2Thenoyl(5-Cl) = O=C(c1ccc(Cl)s1)*; X4 = O=C(c1cccc2c1OC(F)(F)O2)*; Cysteamide = C(CS[*:3])N[*:1]; Isovaleryl = CC(C)CC(=O)*; X7 = CC(C)=CCCC(C)CC(=O)*; X16 = Cc1cc(C(=O)*)ccc1O; Dap = NC[C@H](N)C(=O)O; Mpa = O=C(O)CCS
In this section we review reported fraction fluorescent probe displaced values for a set of compounds.
Keep it simple and answer with nothing but the number.

- compound: "Cc1cc(C(=O)NC[C@@H]2NC(=O)[C@@H]3CCCN3C(=O)CCSSCCNC(=O)[C@H](Cc3c[nH]c4ccccc34)NC2=O)ccc1O [X-B1-D3-W + A30] ([Mpa]P[Dap](X16)W-Cysteamide; disulfide 1-C)"
  fraction fluorescent probe displaced: 0.08563

stdin: Can you share its fraction fluorescent probe displaced? I mean this compound: CC(C)=CCCC(C)CC(=O)NC[C@@H]1NC(=O)[C@@H]2CCCN2C(=O)CCSSCCNC(=O)[C@H](Cc2ccccc2)NC1=O (some centres unmarked) [X-B1-D3-F + A84] ([Mpa]P[Dap](X7)F-Cysteamide; disulfide 1-C)
stdout: 0.05085

stdin: # query: fraction fluorescent probe displaced of entry O=C(NC[C@@H]1NC(=O)[C@@H]2CCCN2C(=O)CCSSCCNC(=O)[C@H](Cc2ccccc2)NC1=O)c1cccc2c1OC(F)(F)O2 [X-B1-D3-F + A38] ([Mpa]P[Dap](X4)F-Cysteamide; disulfide 1-C)
stdout: 0.06653

stdin: Query: fraction fluorescent probe displaced; subject: CC(=O)NC[C@@H]1NC(=O)[C@@H]2CCCN2C(=O)CCSSCCNC(=O)[C@H](Cc2c[nH]c3ccccc23)NC1=O [X-B1-D3-W + A7] ([Mpa]P[Dap](Ac)W-Cysteamide; disulfide 1-C)
stdout: 0.05096

stdin: // lookup fraction fluorescent probe displaced for COc1ccc(C(=O)NC[C@@H]2NC(=O)[C@@H]3CCCN3C(=O)CCSSCCNC(=O)[C@H](Cc3c[nH]c4ccccc34)NC2=O)cn1 [X-B1-D3-W + A10] ([Mpa]P[Dap](Nicotinoyl(6-OMe))W-Cysteamide; disulfide 1-C)
stdout: 0.2362

stdin: Report fraction fluorescent probe displaced for CC(C)CC(=O)NC[C@@H]1NC(=O)[C@@H]2CCCN2C(=O)CCSSCCNC(=O)[C@H](Cc2c[nH]c3ccccc23)NC1=O [X-B1-D3-W + A8] ([Mpa]P[Dap](Isovaleryl)W-Cysteamide; disulfide 1-C) please.
stdout: 0.1324

stdin: What value of measured fraction fluorescent probe displaced is listed for O=C(NC[C@@H]1NC(=O)[C@@H]2CCCN2C(=O)CCSSCCNC(=O)[C@H](Cc2c[nH]c3ccccc23)NC1=O)c1ccc(Cl)s1 [X-B1-D3-W + A14] ([Mpa]P[Dap](2Thenoyl(5-Cl))W-Cysteamide; disulfide 1-C) ?
stdout: 0.1687
